Origin of measurements: PubChem BioAssay (NCATS)

Measured Potency accompanies every entry in the list below.
# experimental.target: Glucocorticoid receptor (Homo sapiens) (UniProt P04150)
# Sequence (P04150 whole entry, looked up): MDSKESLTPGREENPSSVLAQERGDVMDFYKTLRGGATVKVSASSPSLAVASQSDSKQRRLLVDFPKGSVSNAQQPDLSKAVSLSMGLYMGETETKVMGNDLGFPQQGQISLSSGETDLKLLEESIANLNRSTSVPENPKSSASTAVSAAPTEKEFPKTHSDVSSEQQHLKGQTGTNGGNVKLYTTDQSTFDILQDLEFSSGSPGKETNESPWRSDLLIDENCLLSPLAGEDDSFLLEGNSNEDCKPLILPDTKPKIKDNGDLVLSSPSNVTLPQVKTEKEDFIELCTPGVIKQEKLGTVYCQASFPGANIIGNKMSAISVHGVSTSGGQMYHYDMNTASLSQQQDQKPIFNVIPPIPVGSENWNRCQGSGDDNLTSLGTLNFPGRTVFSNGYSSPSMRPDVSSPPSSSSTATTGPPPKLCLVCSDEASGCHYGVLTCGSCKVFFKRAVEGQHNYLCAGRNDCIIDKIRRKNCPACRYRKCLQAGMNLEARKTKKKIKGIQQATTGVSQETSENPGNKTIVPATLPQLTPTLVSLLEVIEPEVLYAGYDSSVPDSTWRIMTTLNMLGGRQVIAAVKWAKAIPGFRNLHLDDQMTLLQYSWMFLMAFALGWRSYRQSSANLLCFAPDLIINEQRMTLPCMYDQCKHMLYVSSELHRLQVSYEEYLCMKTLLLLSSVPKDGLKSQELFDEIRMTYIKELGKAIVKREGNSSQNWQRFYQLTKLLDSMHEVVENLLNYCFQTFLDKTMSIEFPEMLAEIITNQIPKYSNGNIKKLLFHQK
# measurement.notes: GR-EFC Redistribution (AID 451); also: potency is read from the fitted curve at half-maximal effect
# test.context: CHO-K1 GR-EFC translocation, beta-gal luminescence, 2 h
The source made the active and inactive calls. Calls follow the shape of the full dose curve.
observable: Potency

# smiles.code, reported.value
measured = [
    ("CCCCn1cnc2c(c(CC#N)nn2-c2ccccc2)c1=N", "> 9.22 µM (inactive)"),
    ("Cc1cc(SCC(=O)c2ccc(Br)cc2)cc(C)[o+]1", "> 9.22 µM (inactive)"),
    ("O=C1C(=O)c2ccccc2C(O)=C1C(CCc1ccccc1)C1=C(O)c2ccccc2C(=O)C1=O", "> 9.22 µM (inactive)"),
    ("CC(=O)/C(=N\\N=C(N)N)c1ccccc1", "> 9.22 µM (inactive)"),
    ("O=c1cc(N=Nc2ccc(O)cc2)[nH]c(=O)[nH]1", "> 9.22 µM (inactive)"),
    ("NC(=O)/N=C(\\N)NC(=O)c1ccccc1", "> 9.22 µM (inactive)"),
    ("Cc1cc(C)c2nc3c(c([C@H](O)[C@@H]4CCCCN4)c2c1)CC/C3=C/c1ccc(Cl)cc1", "> 9.22 µM (inactive)"),
    ("Clc1cccc(Cl)c1C(Nc1nncs1)Nc1nncs1", "> 9.22 µM (inactive)"),
    ("O=C(NNC(=O)c1ccncc1)c1ccncc1", "> 9.22 µM (inactive)"),
    ("Cc1cc2c(cc1C)NC1=C(N2)O[C@H](c2c[nH]c3ccc(COc4ccccc4)cc23)C1=O", "> 9.22 µM (inactive)"),
    ("Nc1ncnc2c1nc(Sc1ccc(Cl)cc1)n2[C@@H]1O[C@H]2COP(=O)(O)O[C@@H]2[C@H]1O", "> 46 µM (inactive)"),
    ("O=C(O)c1cccc(OCCO)c1", "> 9.22 µM (inactive)"),
    ("Cc1cccc(CNc2ncnc3[nH]ncc23)c1", "> 9.22 µM (inactive)"),
    ("Cc1nc(-c2ccccc2)c(Cc2ccccc2O)c(=O)[nH]1", "> 9.22 µM (inactive)"),
    ("COc1ccc2c(c1)[n+]([O-])c(/C(C)=N/NC(N)=S)c(C)[n+]2[O-]", "> 9.22 µM (inactive)"),
    ("N#C/C(=C\\Nc1ccccn1)C(=O)C1CC1", "> 9.22 µM (inactive)"),
    ("Cc1c2cc[n+](CCN3CCCCC3)cc2c(C)c2c1[nH]c1ccc(O)cc12", "> 9.22 µM (inactive)"),
    ("Cc1cc(C)c2c(SCc3ccc(Cl)cc3Cl)nc(N)nc2n1", "> 9.22 µM (inactive)"),
    ("Cc1ccccc1N1CCN(S(=O)(=O)C[C@@]23CC[C@H](C[C@H]2NC(=O)[C@@H](N)CCS(C)(=O)=O)C3(C)C)CC1", "> 46 µM (inactive)"),
    ("C/C(=C\\c1ccc(Cl)cc1)C(C)(C)C(=O)O", "> 9.22 µM (inactive)"),
    ("N=c1ccn2c(n1)O[C@@H]1[C@@H](O)[C@H](CO)O[C@H]12", "> 46 µM (inactive)"),
    ("CN(C)C(=O)c1ccc(-c2nc(Nc3ccncc3)c3ccccc3n2)cc1", "> 46 µM (inactive)"),
]
